Data origin, for the record: ChEMBL document CHEMBL1137358

# Lookup of reported selectivity ratio keyed by entry
- Test system: CYP2A6 over CYP2D6
- Assay Method Text: Selectivity for CYP2A6 over CYP2D6
- Experimental Context: human

Example cases with answers are listed next.
The recorded selectivity ratio for CN(C)CC#Cc1cccnc1 is > 3

# selectivity ratio of CSCc1ccc(-c2cccnc2)o1 = 81

Measured selectivity ratio of CNCC#Cc1cccnc1 : > 74

# context switch: different molecule, same selectivity ratio
According to the records, this molecule NCCCc1cccnc1 displays selectivity ratio of > 30

###

Listing: selectivity ratio of selected compounds
- Tested on: CYP2A6 over CYP2D6
- Assay Method Text: Selectivity for CYP2A6 over CYP2D6
- Experimental Context: human

// NCc1cc(-c2cccnc2)no1 : selectivity ratio value = > 541

Others:
Memo: Cc1csc(-c2cccnc2)n1 , reported selectivity ratio: > 32.3

For this compound ( c1ccc(-c2ccsc2)cc1 ), measured selectivity ratio is > 32.3
